testDetails: NCI Yeast Anticancer Drug Screen. Data for the mec2-1 strain (AID 157)
experimentalParameters: S. cerevisiae mec2-1 strain, at 50.0 µM, active compounds read high
The panel holds about 79,000 compounds, 15% with a hit somewhere; the sample as a whole holds those more often.
measuredMetric: growth inhibition (%)

{"columns": ["compound", "quantitativeResult"],
 "data": [
  ["COc1c(O)c2ccccc2c2cc(O)ccc12", 25.1],
  ["CCCCC(CCCC)c1ccccn1", -10.9],
  ["CCOC(=O)C(=Cn1ccc(=O)[nH]c1=S)C(=O)OCC", -31.1],
  ["CN(C)c1nc2nccnc2c(=O)[nH]1", -1.75],
  ["CN(CC(=O)O)c1ncc2c(n1)-c1ccccc1SC2", 4.95],
  ["CCN1CC(O)Cc2ccccc21 (configuration not stated)", 8.55],
  ["O=N/C(=C(\\c1ccccc1)N1CCOCC1)c1ccccc1", 11.8]
]}

* * *

testDetails: NCI Yeast Anticancer Drug Screen. Data for the sgs1 mgt1 strain (AID 161);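 note: 0% = growth of cultures given vehicle only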
experimentalParameters: S. cerevisiae sgs1 mgt1 strain, at 50.0 µM, active compounds read high
The panel holds about 79,000 compounds, 15% with a hit somewhere; the sample as a whole holds those more often.

{"columns": ["compound", "growth inhibition / %"],
 "data": [
  ["CC1=C(C(=O)Nc2ccccc2C)C(c2ccc(Cl)cc2)C(C(=O)Nc2ccccc2C)=C(C)N1", -5.2],
  ["CCCCC(CCCC)c1ccccn1", 8.15],
  ["O=C(NC(=S)Nc1cccc2ccccc12)c1ccccc1F", 37.1],
  ["CC(=O)O[C@H]1C[C@H]2CC[C@@]1(C)C2(C)C", -5.55],
  ["O=C(O)c1ccc(C(=O)Nc2cccc3ccccc23)c(C(=O)O)c1", -11.9],
  ["OC(CCc1ccco1)CCc1ccco1", 11.5],
  ["O=C(CC(=O)c1ccccc1)CC(=O)c1ccc(C(=O)CC(=O)CC(=O)c2ccccc2)cc1", 30.9],
  ["CC1COC(C(=O)O)(c2ccccc2)O1 (centres undefined)", -2.1],
  ["COC12OCCN(C)C1=CC(=O)C1N=NCC12 (centres undefined)", 11.2],
  ["O=C(O)C(=O)NCc1cnccn1", -3.65],
  ["CCOC(=O)C(CC)N1C(=O)c2ccccc2S1(=O)=O (centres undefined)", -12.4],
  ["CCOC(=O)/C(=C/c1ccc(C(=O)OC)cc1)N(CC)CC", -12.1],
  ["COCNC(=O)NCC(F)(F)C(F)(F)C(F)(F)C(F)(F)C(F)(F)C(F)(F)C(F)(F)F", -1.2],
  ["S=P(c1ccccc1)(c1ccccc1)C(P(c1ccccc1)c1ccccc1)P(c1ccccc1)c1ccccc1", 46.1],
  ["CC(=O)NC(CCCCNC(=O)NCCCl)C(=O)NCc1ccccc1 (centres undefined)", -2.85],
  ["CN(Cc1cccc(Cl)c1)C(=O)NC(C)(C)C", 15.8],
  ["CO/C(=N\\N=C\\c1cccc(Cl)c1)c1ccncc1", -13.8],
  ["NS(=O)(=O)/C=C(\\Cl)c1ccccc1", 2.95],
  ["COc1ccc(C2(C)c3ccccc3C(=O)C(C)(C)C2(C)CC(=O)O)cc1 (centres undefined)", -1.8],
  ["Oc1cc(-c2ccc(Cl)cc2)cn2c1nc1ccccc12", -38.5],
  ["COc1ccc(-c2onc(-c3ccc([N+](=O)[O-])cc3)c2C2=NCCCN2)cc1", -10.3],
  ["O=[N+]([O-])c1cc(Br)cc2c1[nH]c1nc3ccc(C(F)(F)F)cc3nc12", 8.1],
  ["CCCCCCc1cc(-c2cc(CCCCCC)nc(N)n2)nc(N)n1", 0],
  ["C[n+]1cc(Br)c2ccccc2c1", 3.4]
]}
